# METHOD_DESCRIPTION: Bioavailability and CSF/brain/plasma distribution after PO dosing
# Type: in vivo, Sprague Dawley rats
# CONDITION_INFO: Sprague Dawley, rat, plasma; PO administration (Compound A 10 mg/kg); read-out: Bioavailablity (% F)
Exercise: state measured bioavailability for each of the molecules provided.
Give the value; after it, write the unit.

q: Complete the entry with bioavailability for CC(C)CN1CCC[C@@]12CN([C@H](C(N)=O)[C@@H](C)O)C2=O [Compound B]
a: 38%

q: Complete the entry with bioavailability for CC(C)CN1CCC[C@]12CN([C@H](C(N)=O)[C@@H](C)O)C2=O [Compound A]
a: 42%

====

# ASSAY_TARGET: NMDAR2D (Homo sapiens, UniProt O15399+Q05586)
# Sequence (O15399 28-1336, species assumed, other chains not shown): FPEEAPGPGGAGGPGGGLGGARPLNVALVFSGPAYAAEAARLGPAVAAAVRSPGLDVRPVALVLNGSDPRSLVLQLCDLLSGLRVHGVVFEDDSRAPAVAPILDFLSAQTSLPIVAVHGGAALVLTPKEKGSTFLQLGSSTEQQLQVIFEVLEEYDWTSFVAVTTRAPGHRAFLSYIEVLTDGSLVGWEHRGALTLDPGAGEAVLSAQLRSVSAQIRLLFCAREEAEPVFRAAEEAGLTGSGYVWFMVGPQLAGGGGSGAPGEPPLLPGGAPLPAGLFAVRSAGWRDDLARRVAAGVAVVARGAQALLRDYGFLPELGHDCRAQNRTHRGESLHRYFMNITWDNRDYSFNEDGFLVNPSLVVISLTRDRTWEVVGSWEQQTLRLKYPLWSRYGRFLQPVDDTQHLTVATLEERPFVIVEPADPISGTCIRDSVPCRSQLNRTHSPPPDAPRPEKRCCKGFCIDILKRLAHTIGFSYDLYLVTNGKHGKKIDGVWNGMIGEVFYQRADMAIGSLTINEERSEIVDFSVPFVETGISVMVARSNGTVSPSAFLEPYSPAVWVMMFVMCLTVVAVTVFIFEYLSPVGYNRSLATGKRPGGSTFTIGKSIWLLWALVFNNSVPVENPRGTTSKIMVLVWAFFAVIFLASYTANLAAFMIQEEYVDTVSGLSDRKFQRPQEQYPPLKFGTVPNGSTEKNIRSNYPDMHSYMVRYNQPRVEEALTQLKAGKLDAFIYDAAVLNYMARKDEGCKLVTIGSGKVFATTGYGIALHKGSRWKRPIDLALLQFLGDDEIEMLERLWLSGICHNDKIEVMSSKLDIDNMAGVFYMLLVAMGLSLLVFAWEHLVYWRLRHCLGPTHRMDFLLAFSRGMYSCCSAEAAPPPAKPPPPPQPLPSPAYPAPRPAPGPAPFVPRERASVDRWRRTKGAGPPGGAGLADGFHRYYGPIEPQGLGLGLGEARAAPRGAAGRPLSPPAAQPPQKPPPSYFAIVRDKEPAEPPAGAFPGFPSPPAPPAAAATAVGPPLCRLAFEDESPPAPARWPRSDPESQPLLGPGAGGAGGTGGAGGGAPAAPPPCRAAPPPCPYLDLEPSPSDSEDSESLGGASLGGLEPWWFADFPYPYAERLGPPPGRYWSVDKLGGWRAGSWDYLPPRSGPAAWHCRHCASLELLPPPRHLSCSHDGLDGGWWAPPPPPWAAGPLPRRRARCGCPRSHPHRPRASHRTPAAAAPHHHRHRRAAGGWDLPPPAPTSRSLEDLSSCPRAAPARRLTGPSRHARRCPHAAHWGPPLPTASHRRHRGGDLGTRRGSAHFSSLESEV
# METHOD_DESCRIPTION: Potentiation of [3H]MK-801 binding, NMDAR2D
# CONDITION_INFO: NMDAR2D binding profile, wild-type
# Description: Assays were conducted as described by Moskal et al., “GLYX-13: a monoclonal antibody-derived peptide that acts as an N-rnethyl-D-aspartate receptor modulator,” Neuropharmacology, 49, 1077-87, 2005. The potentiation of [^3H]MK-801 binding (5 nrM; 22.5 Ci/mmol) to well washed rat cortical membranes (200 μg) was measured under non-equilibrium conditions (15 min @ 25° C.) in the presence of increasing concentrations of Compound A. […]
MEASURED_PARAMETER: EC50 (nM)
API: value field is a number in nM; no unit string.

q: GET EC50 | system: NMDAR2D (Homo sapiens, UniProt O15399+Q05586) | item: CC(C)CN1CCC[C@@]12CN([C@H](C(N)=O)[C@@H](C)O)C2=O
a: 3.98

====

Exercise: state measured % 1 mM Glycine for each of the molecules provided.
# ASSAY_TARGET: NMDAR2D (Homo sapiens)
# METHOD_DESCRIPTION: Potentiation of [3H]MK-801 binding, NMDAR2D
# Design: species or system rat
# CONDITION_INFO: NMDAR2D binding profile; relative to 1 mM glycine
API: value field is a number in %; no unit string.

q: Complete the entry with % 1 mM Glycine for C[C@@H](O)[C@@H](C(N)=O)N1C[C@@]2(CCCN2C(=O)OC(C)(C)C)C1=O
a: 93.58

q: Complete the entry with % 1 mM Glycine for CC(C)CN1CCC[C@@]12CN([C@H](C(N)=O)[C@@H](C)O)C2=O
a: 66.21

q: Complete the entry with % 1 mM Glycine for CC(C)C(=O)N1CCC[C@@]12CN([C@H](C(N)=O)[C@@H](C)O)C2=O
a: 65.32

q: Complete the entry with % 1 mM Glycine for C[C@@H](O)[C@@H](C(N)=O)N1C[C@]2(CCCN2C(=O)OC(C)(C)C)C1=O
a: 66.72

q: Complete the entry with % 1 mM Glycine for CC(C)C(=O)N1CCC[C@]12CN([C@H](C(N)=O)[C@@H](C)O)C2=O
a: 54.85

q: Complete the entry with % 1 mM Glycine for CC(C)CN1CCC[C@]12CN([C@H](C(N)=O)[C@@H](C)O)C2=O
a: 0

====

# ASSAY_TARGET: NMDAR2C (Homo sapiens)
# Sequence (Q14957 20-1233, species assumed, other chains not shown): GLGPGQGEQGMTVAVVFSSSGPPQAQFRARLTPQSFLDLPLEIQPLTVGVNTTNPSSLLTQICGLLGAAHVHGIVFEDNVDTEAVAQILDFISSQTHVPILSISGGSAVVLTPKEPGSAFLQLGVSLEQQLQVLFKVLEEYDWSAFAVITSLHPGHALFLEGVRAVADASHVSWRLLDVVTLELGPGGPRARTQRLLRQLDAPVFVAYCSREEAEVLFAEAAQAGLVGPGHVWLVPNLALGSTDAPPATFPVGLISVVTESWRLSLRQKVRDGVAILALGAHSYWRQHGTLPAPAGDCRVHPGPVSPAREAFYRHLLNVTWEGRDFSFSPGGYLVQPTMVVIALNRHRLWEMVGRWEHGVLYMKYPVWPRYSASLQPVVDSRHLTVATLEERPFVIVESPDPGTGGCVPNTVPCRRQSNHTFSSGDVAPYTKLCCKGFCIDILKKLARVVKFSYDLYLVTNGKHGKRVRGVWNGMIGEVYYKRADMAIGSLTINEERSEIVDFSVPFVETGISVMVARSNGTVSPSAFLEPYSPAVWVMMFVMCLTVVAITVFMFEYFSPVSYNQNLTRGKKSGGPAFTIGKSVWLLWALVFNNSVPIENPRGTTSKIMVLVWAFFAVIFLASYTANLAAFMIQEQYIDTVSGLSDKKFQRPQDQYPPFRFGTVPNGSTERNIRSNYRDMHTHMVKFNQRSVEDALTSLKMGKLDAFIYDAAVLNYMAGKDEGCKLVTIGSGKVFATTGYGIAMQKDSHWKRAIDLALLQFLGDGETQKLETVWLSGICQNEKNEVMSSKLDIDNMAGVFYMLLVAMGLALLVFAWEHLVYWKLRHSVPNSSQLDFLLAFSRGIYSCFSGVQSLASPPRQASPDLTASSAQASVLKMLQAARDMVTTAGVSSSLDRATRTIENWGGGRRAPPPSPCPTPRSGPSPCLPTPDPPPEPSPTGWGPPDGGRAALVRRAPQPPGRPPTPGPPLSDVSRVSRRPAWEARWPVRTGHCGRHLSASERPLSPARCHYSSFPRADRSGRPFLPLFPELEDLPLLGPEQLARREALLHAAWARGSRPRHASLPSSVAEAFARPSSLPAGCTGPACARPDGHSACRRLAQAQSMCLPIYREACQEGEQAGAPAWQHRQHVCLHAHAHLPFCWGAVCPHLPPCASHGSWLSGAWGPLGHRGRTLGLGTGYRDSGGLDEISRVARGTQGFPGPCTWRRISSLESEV
# METHOD_DESCRIPTION: Potentiation of [3H]MK-801 binding, NMDAR2C
# CONDITION_INFO: NMDAR2C binding profile, wild-type
MEASURED_PARAMETER: EC50

q: Complete the entry with EC50 for CC(C)CN1CCC[C@]12CN([C@H](C(N)=O)[C@@H](C)O)C2=O
a: 1.51 nM
